Listing of entries alongside the reported growth.
System: MCF7 breast
Assay: NCI-60 one-dose screen, 48 h (100 = growth as untreated, 0 = no growth, -100 = all killed)
Conditions: 10 µM unless noted
About 83,000 compounds went through this panel and 20% of them were active in at least one assay; those are over-represented in the sample as a whole.
measured-metric: growth (%)

>  <compound>
CC(C)n1nc(C#Cc2cccc(O)c2)c2c(N)ncnc21

>  <measured-target>
MCF7 breast

>  <unit>
%

>  <recorded-measurement>
0.624

$$$$
>  <compound>
N#Cc1c(N)nc2c(nnn2-c2cccc(C(F)(F)F)c2)c1N

>  <measured-target>
MCF7 breast

>  <unit>
%

>  <recorded-measurement>
60.1

$$$$
>  <compound>
CC(=O)Nc1nccs1

>  <measured-target>
MCF7 breast

>  <unit>
%

>  <recorded-measurement>
91.2

$$$$
>  <compound>
COc1cc(/C=C2\C=C(c3ccccc3)N(CCc3ccccc3)C2=O)cc(OC)c1OC

>  <measured-target>
MCF7 breast

>  <unit>
%

>  <recorded-measurement>
70.9

$$$$
>  <compound>
O=C1CSC(c2ccccc2)N1c1ccccc1 (stereo not drawn)

>  <measured-target>
MCF7 breast

>  <unit>
%

>  <recorded-measurement>
96.6

$$$$
>  <compound>
CCCCCCCCN(CCCCCCCC)C(=N)c1ccnc2ccccc12

>  <measured-target>
MCF7 breast

>  <unit>
%

>  <recorded-measurement>
-74.6

$$$$
>  <compound>
O=[N+]([O-])c1ccc(-c2cc3c(Nc4ccc(OCc5cccc(Cl)c5)c(Cl)c4)ncnc3s2)cc1

>  <measured-target>
MCF7 breast

>  <unit>
%

>  <recorded-measurement>
44.1

$$$$
>  <compound>
N#Cc1c(N)n2c(nc1=Nc1ccc([N+](=O)[O-])cc1)sc1cc(Cl)ccc12

>  <measured-target>
MCF7 breast

>  <unit>
%

>  <recorded-measurement>
77.6

$$$$
>  <compound>
COc1cc(C2C=C(c3cccc(NC(C)=O)c3)Nc3ncnn32)cc(OC)c1OC (stereo not drawn)

>  <measured-target>
MCF7 breast

>  <unit>
%

>  <recorded-measurement>
18.3

$$$$
>  <compound>
O=C(O)c1ccc(CO)o1

>  <measured-target>
MCF7 breast

>  <unit>
%

>  <recorded-measurement>
84.1

$$$$
>  <compound>
CC1(C)CC(=O)c2c(ccc(C(=O)C[C@H](N)CO)c2N)O1

>  <measured-target>
MCF7 breast

>  <unit>
%

>  <recorded-measurement>
13.3

$$$$
>  <compound>
Clc1ccc2c(NCCCN3CCN(c4nc(-n5ccnc5)nc5ccccc45)CC3)ccnc2c1

>  <measured-target>
MCF7 breast

>  <unit>
%

>  <recorded-measurement>
-29.3

$$$$
>  <compound>
CCN1CCN(c2ccc(Nc3cc(-c4cccnc4Nc4c(Cl)c(OC)cc(OC)c4Cl)ncn3)cc2)CC1

>  <measured-target>
MCF7 breast

>  <unit>
%

>  <recorded-measurement>
40.9

$$$$
>  <compound>
CNC(=O)c1c(NC(=O)c2ccc(C(C)(C)C)cc2)sc2c1CCC(=O)C2

>  <measured-target>
MCF7 breast

>  <unit>
%

>  <recorded-measurement>
8.99

$$$$
>  <compound>
COc1cc(NC(=O)c2cccc(-c3cc(=O)c4c(OC)c(OC)c(OC)cc4o3)c2)cc(OC)c1OC

>  <measured-target>
MCF7 breast

>  <unit>
%

>  <recorded-measurement>
34.3

$$$$
>  <compound>
Cc1cc(Cl)nc(N(CCCNc2ccnc3cc(Cl)ccc23)Cc2ccccn2)n1

>  <measured-target>
MCF7 breast

>  <unit>
%

>  <recorded-measurement>
32.9

$$$$
>  <compound>
CCn1c(Sc2nnc(NC(=O)CCN3CCCC3)s2)nc2c1c(=O)n(C)c(=O)n2C

>  <measured-target>
MCF7 breast

>  <unit>
%

>  <recorded-measurement>
105

$$$$
>  <compound>
CCOc1cc(C2C(Cl)C(=O)N2n2cnnc2)ccc1O (stereo not drawn)

>  <measured-target>
MCF7 breast

>  <unit>
%

>  <recorded-measurement>
97.5

$$$$
